Listed compounds paired with reported inhibition at 1 µM
measured.on: hMC5-R (Homo sapiens, UniProt P33032)
Sequence (P33032 whole entry): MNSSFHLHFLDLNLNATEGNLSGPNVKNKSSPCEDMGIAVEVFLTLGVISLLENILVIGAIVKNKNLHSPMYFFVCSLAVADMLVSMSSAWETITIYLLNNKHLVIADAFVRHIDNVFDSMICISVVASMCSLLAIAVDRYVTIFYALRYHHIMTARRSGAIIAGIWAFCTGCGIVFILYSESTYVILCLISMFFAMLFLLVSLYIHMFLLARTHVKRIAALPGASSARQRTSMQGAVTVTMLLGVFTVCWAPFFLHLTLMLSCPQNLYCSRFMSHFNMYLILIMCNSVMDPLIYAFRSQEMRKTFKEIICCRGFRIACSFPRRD
protocol.notes: Competitive inhibition binding assay, 125I-NDP-α-MSH, hMC5-R membranes
experimental.context: 1 μM test compound; 0.4 nM 125I-NDP-α-MSH; mean of triplicate; results less than 0% reported as 0%; read-out: Inhibition at 1 μM MC5-R
measured.attribute: inhibition at 1 µM (%)

- structure.smiles.string: "N[C@H](Cc1ccccc1)C(=O)N1C[C@H](Cc2ccccc2)NC[C@H]1Cc1ccccc1"
  recorded.value: 13
- structure.smiles.string: "Cc1ccc(S(=O)(=O)N[C@H](Cc2ccc(Cl)cc2)C(=O)N2CCN[C@H](Cc3ccc4ccccc4c3)C2)cc1"
  recorded.value: 20
- structure.smiles.string: "N[C@H](Cc1ccc(Cl)cc1)C(=O)N1CCN[C@H](Cc2ccc3ccccc3c2)C1"
  recorded.value: 0
- structure.smiles.string: "N[C@H](Cc1ccccc1)C(=O)N1C[C@@H](Cc2ccccc2)NC[C@@H]1Cc1ccccc1"
  recorded.value: 3
- structure.smiles.string: "N[C@H](Cc1ccc2ccccc2c1)C(=O)N1C[C@H](Cc2ccccc2)NC[C@H]1Cc1ccccc1"
  recorded.value: 10
- structure.smiles.string: "CCCC(CCC)C(=O)N[C@H](Cc1ccc(Cl)cc1)C(=O)N1CCN[C@H](Cc2ccc3ccccc3c2)C1"
  recorded.value: -4
- structure.smiles.string: "O=C(CCCc1ccccc1)N[C@H](Cc1ccc(Cl)cc1)C(=O)N1CCN[C@H](Cc2ccc3ccccc3c2)C1"
  recorded.value: 13
- structure.smiles.string: "N[C@@H](Cc1ccccc1)C(=O)N1C[C@@H](Cc2ccccc2)NC[C@@H]1Cc1ccccc1"
  recorded.value: 12
- structure.smiles.string: "N[C@@H](COCc1ccccc1)C(=O)N[C@H](Cc1ccc(Cl)cc1)C(=O)N1CCN[C@H](Cc2ccc3ccccc3c2)C1"
  recorded.value: 27
- structure.smiles.string: "N[C@@H](Cc1ccccc1)C(=O)N1C[C@H](Cc2ccccc2)NC[C@H]1Cc1ccccc1"
  recorded.value: 0
- structure.smiles.string: "O=C(Cc1ccccc1)N[C@H](Cc1ccc(Cl)cc1)C(=O)N1CCN[C@H](Cc2ccc3ccccc3c2)C1"
  recorded.value: 18
- structure.smiles.string: "O=C(N[C@H](Cc1ccccc1Cl)C(=O)N1CCN[C@H](Cc2ccc3ccccc3c2)C1)[C@H]1Cc2ccccc2CN1"
  recorded.value: 20
- structure.smiles.string: "O=C(CCc1ccc(Cl)cc1Cl)N1C[C@H](Cc2ccccc2)NC[C@H]1Cc1ccc2ccccc2c1"
  recorded.value: 6

###

Form field: inhibition at 1 µM (one value per entry).
measured.on: B-16 mouse melanoma cells (containing MC1-R) (Mus musculus)
Construct: B-16 mouse melanoma cells (containing MC1-R); endogenous in cells; host or cells: B-16 mouse melanoma cells
Sequence (Q01727 whole entry): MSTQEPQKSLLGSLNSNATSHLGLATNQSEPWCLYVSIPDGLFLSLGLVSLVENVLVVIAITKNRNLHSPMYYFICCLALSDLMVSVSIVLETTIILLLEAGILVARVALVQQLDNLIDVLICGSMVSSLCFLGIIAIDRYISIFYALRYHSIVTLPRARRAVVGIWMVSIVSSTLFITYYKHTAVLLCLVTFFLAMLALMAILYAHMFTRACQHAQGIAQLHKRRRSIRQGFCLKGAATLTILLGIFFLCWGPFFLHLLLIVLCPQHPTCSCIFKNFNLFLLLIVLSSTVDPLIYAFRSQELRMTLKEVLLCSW
protocol.notes: Competitive inhibition binding assay, 125I-NDP-α-MSH, B-16 mouse melanoma cell membranes
experimental.context: 1 μM test compound; 0.4 nM 125I-NDP-α-MSH; mean of triplicate; results less than 0% reported as 0%; read-out: Inhibition at 1 μM MC1-R (murine)

- structure.smiles.string: "N[C@H](Cc1ccccc1)C(=O)N1C[C@@H](Cc2ccccc2)NC[C@@H]1Cc1ccccc1"
  inhibition at 1 µM [%]: 0
- structure.smiles.string: "N[C@H](Cc1ccccc1)C(=O)N1C[C@H](Cc2ccccc2)NC[C@H]1Cc1ccccc1"
  inhibition at 1 µM [%]: 0
- structure.smiles.string: "N[C@H](Cc1ccc2ccccc2c1)C(=O)N1C[C@H](Cc2ccccc2)NC[C@H]1Cc1ccccc1"
  inhibition at 1 µM [%]: 0
- structure.smiles.string: "N[C@@H](Cc1c[nH]cn1)C(=O)N[C@H](Cc1ccccc1Cl)C(=O)N1CCN[C@H](Cc2ccc3ccccc3c2)C1"
  inhibition at 1 µM [%]: 52
- structure.smiles.string: "CCCC(CCC)C(=O)N[C@H](Cc1ccc(Cl)cc1)C(=O)N1CCN[C@H](Cc2ccc3ccccc3c2)C1"
  inhibition at 1 µM [%]: 0
- structure.smiles.string: "CC(=O)N[C@H](Cc1ccc(Cl)cc1)C(=O)N1CCN[C@H](Cc2ccc3ccccc3c2)C1"
  inhibition at 1 µM [%]: 6
- structure.smiles.string: "O=C(CCCc1ccccc1)N[C@H](Cc1ccc(Cl)cc1)C(=O)N1CCN[C@H](Cc2ccc3ccccc3c2)C1"
  inhibition at 1 µM [%]: 5
- structure.smiles.string: "N[C@@H](Cc1c[nH]cn1)C(=O)N[C@H](Cc1ccc(Cl)cc1)C(=O)N1CCN[C@H](Cc2ccc3ccccc3c2)C1"
  inhibition at 1 µM [%]: 71
- structure.smiles.string: "N[C@H](Cc1ccc(Cl)cc1Cl)C(=O)N1C[C@@H](Cc2ccccc2)NC[C@@H]1Cc1ccccc1"
  inhibition at 1 µM [%]: 0
- structure.smiles.string: "O=C(Cc1ccccc1)N[C@H](Cc1ccc(Cl)cc1)C(=O)N1CCN[C@H](Cc2ccc3ccccc3c2)C1"
  inhibition at 1 µM [%]: 5
- structure.smiles.string: "N[C@@H](Cc1ccccc1)C(=O)N1C[C@H](Cc2ccccc2)NC[C@H]1Cc1ccccc1"
  inhibition at 1 µM [%]: 0
- structure.smiles.string: "N[C@H](Cc1ccc2ccccc2c1)C(=O)N1C[C@@H](Cc2ccccc2)NC[C@@H]1Cc1ccccc1"
  inhibition at 1 µM [%]: 0
- structure.smiles.string: "O=C(N[C@H](Cc1ccccc1Cl)C(=O)N1CCN[C@H](Cc2ccc3ccccc3c2)C1)[C@H]1Cc2ccccc2CN1"
  inhibition at 1 µM [%]: 24
- structure.smiles.string: "N[C@H](Cc1ccc(Cl)cc1Cl)C(=O)N1C[C@H](Cc2ccccc2)NC[C@H]1Cc1ccccc1"
  inhibition at 1 µM [%]: 0
- structure.smiles.string: "Cc1ccc(S(=O)(=O)N[C@H](Cc2ccc(Cl)cc2)C(=O)N2CCN[C@H](Cc3ccc4ccccc4c3)C2)cc1"
  inhibition at 1 µM [%]: 10

###

Reported inhibition at 1 µM values follow for various molecules
measured.on: hMC3-R (Homo sapiens)
Sequence (P41968 whole entry): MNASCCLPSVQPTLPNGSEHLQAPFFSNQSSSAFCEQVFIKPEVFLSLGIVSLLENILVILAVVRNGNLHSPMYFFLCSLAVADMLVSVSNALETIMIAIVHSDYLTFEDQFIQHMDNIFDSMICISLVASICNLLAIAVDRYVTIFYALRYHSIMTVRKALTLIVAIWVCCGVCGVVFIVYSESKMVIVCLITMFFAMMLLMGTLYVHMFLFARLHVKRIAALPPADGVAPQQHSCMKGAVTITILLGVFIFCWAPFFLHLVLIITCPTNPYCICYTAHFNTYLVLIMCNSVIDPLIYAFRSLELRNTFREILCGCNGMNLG
protocol.notes: Competitive inhibition binding assay, 125I-NDP-α-MSH, hMC3-R membranes
experimental.context: 1 μM test compound; 0.4 nM 125I-NDP-α-MSH; mean of triplicate; results less than 0% reported as 0%; read-out: Inhibition at 1 μM MC3-R
measured.attribute: inhibition at 1 µM

- structure.smiles.string: "N[C@@H](COCc1ccccc1)C(=O)N[C@H](Cc1ccc(Cl)cc1)C(=O)N1CCN[C@H](Cc2ccc3ccccc3c2)C1"
  measured.on: "hMC3-R (Homo sapiens)"
  measured.attribute: "inhibition at 1 µM"
  recorded.value: "54%"
- structure.smiles.string: "N[C@H](Cc1ccccc1)C(=O)N1C[C@@H](Cc2ccccc2)NC[C@@H]1Cc1ccccc1"
  measured.on: "hMC3-R (Homo sapiens)"
  measured.attribute: "inhibition at 1 µM"
  recorded.value: "0%"
- structure.smiles.string: "Cc1ccc(S(=O)(=O)N[C@H](Cc2ccc(Cl)cc2)C(=O)N2CCN[C@H](Cc3ccc4ccccc4c3)C2)cc1"
  measured.on: "hMC3-R (Homo sapiens)"
  measured.attribute: "inhibition at 1 µM"
  recorded.value: "14%"
- structure.smiles.string: "N[C@H](Cc1ccc(Cl)cc1)C(=O)N1CCN[C@H](Cc2ccc3ccccc3c2)C1"
  measured.on: "hMC3-R (Homo sapiens)"
  measured.attribute: "inhibition at 1 µM"
  recorded.value: "0%"
- structure.smiles.string: "CC(=O)N[C@H](Cc1ccc(Cl)cc1)C(=O)N1CCN[C@H](Cc2ccc3ccccc3c2)C1"
  measured.on: "hMC3-R (Homo sapiens)"
  measured.attribute: "inhibition at 1 µM"
  recorded.value: "0%"
- structure.smiles.string: "O=C(Cc1ccccc1)N[C@H](Cc1ccc(Cl)cc1)C(=O)N1CCN[C@H](Cc2ccc3ccccc3c2)C1"
  measured.on: "hMC3-R (Homo sapiens)"
  measured.attribute: "inhibition at 1 µM"
  recorded.value: "6%"
- structure.smiles.string: "O=C(CCCc1ccccc1)N[C@H](Cc1ccc(Cl)cc1)C(=O)N1CCN[C@H](Cc2ccc3ccccc3c2)C1"
  measured.on: "hMC3-R (Homo sapiens)"
  measured.attribute: "inhibition at 1 µM"
  recorded.value: "3%"
- structure.smiles.string: "N[C@H](Cc1ccc2ccccc2c1)C(=O)N1C[C@@H](Cc2ccccc2)NC[C@@H]1Cc1ccccc1"
  measured.on: "hMC3-R (Homo sapiens)"
  measured.attribute: "inhibition at 1 µM"
  recorded.value: "0%"
- structure.smiles.string: "N[C@@H](Cc1c[nH]cn1)C(=O)N[C@H](Cc1ccccc1Cl)C(=O)N1CCN[C@H](Cc2ccc3ccccc3c2)C1"
  measured.on: "hMC3-R (Homo sapiens)"
  measured.attribute: "inhibition at 1 µM"
  recorded.value: "18%"
- structure.smiles.string: "O=C(N[C@H](Cc1ccc(Cl)cc1)C(=O)N1CCN[C@H](Cc2ccc3ccccc3c2)C1)[C@H]1Cc2ccccc2CN1"
  measured.on: "hMC3-R (Homo sapiens)"
  measured.attribute: "inhibition at 1 µM"
  recorded.value: "26%"
- structure.smiles.string: "N[C@H](Cc1ccccc1)C(=O)N1C[C@H](Cc2ccccc2)NC[C@H]1Cc1ccc2ccccc2c1"
  measured.on: "hMC3-R (Homo sapiens)"
  measured.attribute: "inhibition at 1 µM"
  recorded.value: "14%"
- structure.smiles.string: "N[C@@H](Cc1ccccc1)C(=O)N1C[C@H](Cc2ccccc2)NC[C@H]1Cc1ccc2ccccc2c1"
  measured.on: "hMC3-R (Homo sapiens)"
  measured.attribute: "inhibition at 1 µM"
  recorded.value: "13%"
- structure.smiles.string: "CCCC(CCC)C(=O)N[C@H](Cc1ccc(Cl)cc1)C(=O)N1CCN[C@H](Cc2ccc3ccccc3c2)C1"
  measured.on: "hMC3-R (Homo sapiens)"
  measured.attribute: "inhibition at 1 µM"
  recorded.value: "0%"
- structure.smiles.string: "N[C@H](Cc1ccccc1Cl)C(=O)N1CCN[C@H](Cc2ccc3ccccc3c2)C1"
  measured.on: "hMC3-R (Homo sapiens)"
  measured.attribute: "inhibition at 1 µM"
  recorded.value: "19%"
- structure.smiles.string: "O=C(N[C@H](Cc1ccccc1Cl)C(=O)N1CCN[C@H](Cc2ccc3ccccc3c2)C1)[C@H]1Cc2ccccc2CN1"
  measured.on: "hMC3-R (Homo sapiens)"
  measured.attribute: "inhibition at 1 µM"
  recorded.value: "17%"
- structure.smiles.string: "O=C(CCc1ccc(Cl)cc1Cl)N1C[C@H](Cc2ccccc2)NC[C@H]1Cc1ccc2ccccc2c1"
  measured.on: "hMC3-R (Homo sapiens)"
  measured.attribute: "inhibition at 1 µM"
  recorded.value: "9%"
- structure.smiles.string: "N[C@H](Cc1ccc2ccccc2c1)C(=O)N1C[C@H](Cc2ccccc2)NC[C@H]1Cc1ccccc1"
  measured.on: "hMC3-R (Homo sapiens)"
  measured.attribute: "inhibition at 1 µM"
  recorded.value: "0%"
- structure.smiles.string: "N[C@@H](Cc1ccccc1)C(=O)N1C[C@H](Cc2ccccc2)NC[C@H]1Cc1ccccc1"
  measured.on: "hMC3-R (Homo sapiens)"
  measured.attribute: "inhibition at 1 µM"
  recorded.value: "0%"
- structure.smiles.string: "N[C@H](Cc1ccc2ccccc2c1)C(=O)N1C[C@H](Cc2ccccc2)NC[C@H]1Cc1ccc2ccccc2c1"
  measured.on: "hMC3-R (Homo sapiens)"
  measured.attribute: "inhibition at 1 µM"
  recorded.value: "19%"
- structure.smiles.string: "N[C@H](Cc1ccc(Cl)cc1Cl)C(=O)N1C[C@@H](Cc2ccccc2)NC[C@@H]1Cc1ccccc1"
  measured.on: "hMC3-R (Homo sapiens)"
  measured.attribute: "inhibition at 1 µM"
  recorded.value: "0%"
- structure.smiles.string: "N[C@H](Cc1ccccc1)C(=O)N1C[C@H](Cc2ccccc2)NC[C@H]1Cc1ccccc1"
  measured.on: "hMC3-R (Homo sapiens)"
  measured.attribute: "inhibition at 1 µM"
  recorded.value: "12%"
- structure.smiles.string: "N[C@@H](Cc1ccccc1)C(=O)N1C[C@@H](Cc2ccccc2)NC[C@@H]1Cc1ccccc1"
  measured.on: "hMC3-R (Homo sapiens)"
  measured.attribute: "inhibition at 1 µM"
  recorded.value: "0%"
- structure.smiles.string: "N[C@@H](COCc1ccccc1)C(=O)N[C@H](Cc1ccccc1Cl)C(=O)N1CCN[C@H](Cc2ccc3ccccc3c2)C1"
  measured.on: "hMC3-R (Homo sapiens)"
  measured.attribute: "inhibition at 1 µM"
  recorded.value: "33%"
- structure.smiles.string: "N[C@H](Cc1ccc(Cl)cc1Cl)C(=O)N1C[C@H](Cc2ccccc2)NC[C@H]1Cc1ccc2ccccc2c1"
  measured.on: "hMC3-R (Homo sapiens)"
  measured.attribute: "inhibition at 1 µM"
  recorded.value: "12%"
- structure.smiles.string: "N[C@@H](Cc1c[nH]cn1)C(=O)N[C@H](Cc1ccc(Cl)cc1)C(=O)N1CCN[C@H](Cc2ccc3ccccc3c2)C1"
  measured.on: "hMC3-R (Homo sapiens)"
  measured.attribute: "inhibition at 1 µM"
  recorded.value: "18%"
- structure.smiles.string: "N[C@H](Cc1ccc(Cl)cc1Cl)C(=O)N1C[C@H](Cc2ccccc2)NC[C@H]1Cc1ccccc1"
  measured.on: "hMC3-R (Homo sapiens)"
  measured.attribute: "inhibition at 1 µM"
  recorded.value: "0%"
- structure.smiles.string: "CC(=O)Oc1ccccc1C(=O)N[C@H](Cc1ccc(Cl)cc1)C(=O)N1CCN[C@H](Cc2ccc3ccccc3c2)C1"
  measured.on: "hMC3-R (Homo sapiens)"
  measured.attribute: "inhibition at 1 µM"
  recorded.value: "0%"
